test system: Human primary T cells; assay: IL-2 ELISA, Human Primary T Cell, Anti-CD3+CD28+ (Example 3); assay type: cell-based; conditions: Homo sapiens, T-cell, 24 h, anti-CD3+CD28 stimulation
endpoint label: IC50 (µM)

Record excerpt, results attached:
Request: Identify the measured IC50 of `COc1ccc(Nc2ncc(F)c(NC3CC(C)(C)NC(C)(C)C3)n2)cc1OC(F)F` for Human primary T cells.
Result: 0.18

Request: Identify the measured IC50 of `CN1C(C)(C)CC(Nc2nc(Nc3nc(-c4ccc(Oc5ccccc5)cc4)cs3)ncc2F)CC1(C)C` for Human primary T cells.
Result: 0.91

A. COc1cc(Nc2ncc(F)c(NC3CC(C)(C)N(C)C(C)(C)C3)n2)cc(OCCN2CCCC2)c1
B. CN1C(C)(C)CC(Nc2nc(Nc3ccc(-c4cccnc4)cc3)ncc2F)CC1(C)C
Request: Lab notebook, comparison: A versus B , higher IC50 goes to which? API: response body contains the label of the selected item.
Result: B
(B: 0.54 µM, A: 0.27 µM)

a. CCN1C(=O)CCc2cc(Nc3ncc(F)c(NC4CC(C)(C)N(C)C(C)(C)C4)n3)ccc21
b. COc1ccc(Nc2ncc(F)c(N(Cc3ccc(-c4ccccc4)cc3)C3CC(C)(C)N(C)C(C)(C)C3)n2)cc1OC(F)F
Request: Lab notebook, comparison: a versus b , higher IC50 goes to which? API: response body contains the label of the selected item.
Result: b
(b: 2.85 µM, a: 0.561 µM)
